Where these numbers come from: PubChem BioAssay AID493027

Target: Perilipin-1 (Homo sapiens) + 1-acylglycerol-3-phosphate O-acyltransferase ABHD5 (Homo sapiens) (UniProt O60240+Q8WTS1)
Sequence (O60240 whole entry, looked up): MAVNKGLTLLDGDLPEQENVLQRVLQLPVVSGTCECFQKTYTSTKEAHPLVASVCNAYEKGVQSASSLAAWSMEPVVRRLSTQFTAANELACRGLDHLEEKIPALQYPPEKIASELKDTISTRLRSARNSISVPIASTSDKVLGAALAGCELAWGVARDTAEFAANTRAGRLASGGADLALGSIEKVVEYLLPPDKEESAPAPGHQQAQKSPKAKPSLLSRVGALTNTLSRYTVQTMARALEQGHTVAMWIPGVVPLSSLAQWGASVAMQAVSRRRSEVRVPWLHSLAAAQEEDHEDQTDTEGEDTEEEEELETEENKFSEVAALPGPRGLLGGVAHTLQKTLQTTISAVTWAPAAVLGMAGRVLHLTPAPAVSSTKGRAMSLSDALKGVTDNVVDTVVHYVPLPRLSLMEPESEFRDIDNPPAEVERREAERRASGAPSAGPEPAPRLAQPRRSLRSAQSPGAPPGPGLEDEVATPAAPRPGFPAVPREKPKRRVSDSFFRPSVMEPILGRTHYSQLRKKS
Sequence (Q8WTS1 whole entry, looked up): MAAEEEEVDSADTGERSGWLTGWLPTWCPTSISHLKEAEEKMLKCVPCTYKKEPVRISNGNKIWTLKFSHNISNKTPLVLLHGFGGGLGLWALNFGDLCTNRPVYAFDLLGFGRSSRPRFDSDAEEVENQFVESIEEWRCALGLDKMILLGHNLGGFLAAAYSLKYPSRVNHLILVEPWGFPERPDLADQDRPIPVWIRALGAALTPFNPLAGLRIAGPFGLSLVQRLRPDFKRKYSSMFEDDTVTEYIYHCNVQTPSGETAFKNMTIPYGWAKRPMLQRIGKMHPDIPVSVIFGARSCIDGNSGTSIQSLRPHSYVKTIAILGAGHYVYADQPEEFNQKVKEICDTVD
Assay: ABHD5-PLIN1 interaction inhibitors, pilot screen, cell lysate, split luciferase complementation, luminescence, NIH validation set (AID 493027);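 also: 0% = DMSO wells with the 100% control not disclosed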
Settings: split G. princeps luciferase complementation, 4 h; at 7.9 µM
Out of some 2,000 compounds screened, about 45 (2%) were called active.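 The calls were made as follows: active = inhibition above the screen-wide mean inhibition plus 3 SD (cut at about 44% in these data); inactive = the rest.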 The sample as a whole holds a higher share of actives than the screen did.
// one of label 1 (active), label 0 (inactive), no free text

A selection of reference data follows.
[[record]]
compound = "COc1ccc(-c2nc3c(=O)n(C)c(=O)[nH]c3n2CCc2ccccc2)cc1"
class = "label 0"

[[record]]
compound = "CC(C)(C)C(=O)NC(=S)Nc1sc2c(c1C(N)=O)CCC2"
class = "label 0"

[[record]]
compound = "CCN(CC)C(=O)c1ccc(O)c(OC)c1"
class = "label 0"

[[record]]
compound = "COC(=O)C1=C(C)NC(C)=C([N+](=O)[O-])C1c1ccccc1C(F)(F)F (centres undefined)"
class = "label 0"


Q: I'd appreciate the recorded outcome for CC1(c2ccccc2)CC(C)(C)N2C(=O)C(=O)c3cccc1c32 (centres undefined) from this test.
Result: label 1

Q: Could you do the same for O=C(O)/C=C/c1ccc(O)c(O)c1 , please?
Result: label 0

Q: Could you do the same for CC1=CC(=O)c2ccccc2C1=O , please?
Result: label 1

Q: Could you do the same for O=C1c2ccccc2C2(c3ccccc3)NCCN12 (centres undefined) , please?
Result: label 0
